- ASSAY TEXT: UV-visible absorption spectroscopy
- Assay type: physicochemical
- CONDITION CONTEXT: methanol
OBSERVED PROPERTY: Maximum Absorption Wavelength (nm)
A number alone suffices; assume nm.

The following compounds have reported results that may help.
INSERT INTO measurements (compound, observed_property, unit_of_measurement, data_value) VALUES
  ('CCCCN1C(=CC=Cc2ccc3ccccc3[n+]2CCCC)C(C)(C)c2c1ccc1ccccc21 [Experiment 2]', 'Maximum Absorption Wavelength', 'nm', 583.0),
  ('CCCCN1C(=CC=Cc2ccc3ccccc3[n+]2CCCC)C(C)(C)c2c1ccc1ccccc21 [Experiment 3]', 'Maximum Absorption Wavelength', 'nm', 583.0);

# context switch: different compound, same Maximum Absorption Wavelength
Lookup: Please give the measured Maximum Absorption Wavelength for this compound: CCCCN1C(=CC=Cc2cc[n+](CC)c3ccccc23)C(C)(C)c2cc(Cl)ccc21
Found: 598.4

Reference source: patent US20040230057A1
